System: MCF-7 cells
Assay: MTT antiproliferative activity assay, MCF-7
Format: cell-based, human
Conditions: MTT, 48 h treatment, average of three replicates

| molecule | IC50 MCF-7 |
| --- | --- |
| CC[C@H](CC[C@@H](C)[C@H]1CC[C@H]2[C@@H]3CC=C4C[C@@H](O[C@@H]5O[C@H](CO)[C@@H](O)[C@H](O)[C@H]5O)CC[C@]4(C)[C@H]3CC[C@]12C)C(C)C [β-Sitosteryl glucoside] | >150 µg/mL |
| C=C(C(=O)O)[C@@H]1CC[C@@]2(C)C[C@@H](O)C[C@@](C)(O)[C@@H]2C1 [2α-Hydroxyilicic acid] | >150 µg/mL |
| C=C1C[C@@H]2OC(=O)[C@@H](C)[C@H]2C[C@@H]2[C@@H]1CC[C@@]2(C)O [11α,13-Dihydroinuviscolide] | >150 µg/mL |
